Reported inhibition by item:
Molecular target: Botulinum neurotoxin type A (Clostridium botulinum) (UniProt P0DPI0)
Sequence (P0DPI0 whole entry, looked up): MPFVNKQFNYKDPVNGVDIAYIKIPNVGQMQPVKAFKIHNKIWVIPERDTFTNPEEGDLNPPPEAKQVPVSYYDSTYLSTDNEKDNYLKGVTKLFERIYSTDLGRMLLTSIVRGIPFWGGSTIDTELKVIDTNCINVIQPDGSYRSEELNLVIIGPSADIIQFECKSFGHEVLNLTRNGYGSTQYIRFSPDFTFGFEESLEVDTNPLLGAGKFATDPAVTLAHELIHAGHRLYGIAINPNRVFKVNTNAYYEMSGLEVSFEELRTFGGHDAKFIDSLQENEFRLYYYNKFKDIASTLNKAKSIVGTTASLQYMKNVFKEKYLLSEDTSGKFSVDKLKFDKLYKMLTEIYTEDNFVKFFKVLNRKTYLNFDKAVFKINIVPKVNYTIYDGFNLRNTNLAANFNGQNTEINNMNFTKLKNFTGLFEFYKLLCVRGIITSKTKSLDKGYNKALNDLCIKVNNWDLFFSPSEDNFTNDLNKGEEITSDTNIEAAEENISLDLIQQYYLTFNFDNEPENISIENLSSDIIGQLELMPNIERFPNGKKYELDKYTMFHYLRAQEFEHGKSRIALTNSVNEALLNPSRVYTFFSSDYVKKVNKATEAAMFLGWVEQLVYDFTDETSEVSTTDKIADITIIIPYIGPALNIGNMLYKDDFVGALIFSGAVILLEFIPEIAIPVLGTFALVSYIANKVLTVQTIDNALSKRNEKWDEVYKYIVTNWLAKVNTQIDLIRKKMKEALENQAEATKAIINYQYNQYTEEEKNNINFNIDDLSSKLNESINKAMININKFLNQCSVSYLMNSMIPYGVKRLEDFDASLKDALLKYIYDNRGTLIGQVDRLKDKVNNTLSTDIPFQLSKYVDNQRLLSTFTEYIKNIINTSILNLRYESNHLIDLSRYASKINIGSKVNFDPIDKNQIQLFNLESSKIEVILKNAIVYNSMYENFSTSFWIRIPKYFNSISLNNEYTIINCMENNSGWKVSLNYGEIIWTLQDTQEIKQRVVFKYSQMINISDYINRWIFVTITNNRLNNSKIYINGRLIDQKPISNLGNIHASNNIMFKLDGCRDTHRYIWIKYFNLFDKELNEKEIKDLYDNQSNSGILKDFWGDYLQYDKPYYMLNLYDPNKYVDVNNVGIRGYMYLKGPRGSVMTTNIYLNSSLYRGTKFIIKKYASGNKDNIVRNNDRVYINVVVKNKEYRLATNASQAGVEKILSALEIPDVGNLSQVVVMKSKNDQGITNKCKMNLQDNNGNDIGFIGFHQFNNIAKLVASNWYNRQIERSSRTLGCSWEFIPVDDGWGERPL
Test: BoNT/A light chain protease inhibitors, biochemical, multiplex microsphere flow cytometry, validation set (AID 588460)
Details: at 10 µM, hits give high values
metric: inhibition (%)

CC(C)CC(=O)OC1C(N2CCOCC2)c2c(ccc(/C=C/C(=O)N3CCOCC3)c2O)OC1(C)C (centres undefined) :: -0.5
O=C(O)CCCCCN1C(=O)C(=O)/C(=C(/O)c2ccccc2)C1c1ccccc1 (centres undefined) :: 0.9
CCCCCC#CCC#CCC#CCC#CCCCC(=O)O :: -0.6
CCc1cc2c(=O)c(-c3ccc(F)cc3)c(C)oc2cc1OCC(=O)O :: 2.2
O=C(NO)c1ccccc1O :: 2
CCOC(=O)c1ccc(N2C(=O)C(CC(N)=O)N(CCc3ccc(OC)c(OC)c3)C2=S)cc1 (centres undefined) :: 1.1
Cc1cc(-c2ccccc2)nnc1NCCN1CCOCC1 :: -0.4
O=C(O)c1cccnc1Nc1cccc(C(F)(F)F)c1 :: 0.3
O=C1N[C@@H](Cc2cnc[nH]2)C(=O)N2CCC[C@@H]12 :: 0.3
C[N+]12CCCCC1C(COC(=O)c1ccc3c(c1)OCO3)CCC2 (centres undefined) :: 0.2
CC(C)(C)NCC(O)COc1ccccc1C(=O)CCc1ccccc1 (centres undefined) :: -2
Cc1ccc(S(=O)(=O)NC(C(=O)Oc2cc3oc(=O)cc(C)c3cc2Cl)C(C)C)cc1 (centres undefined) :: 0.5
COc1cc(CNc2nnnn2C)ccc1OCc1ccc(F)cc1Cl :: -0.5
COc1ccc(C(=O)/C=C/c2cc(C(=O)O)cc3c2OCOC3)c(O)c1 :: -0.8
O=c1nc2n(c3c1oc1ccccc13)Cc1ccccc1-2 :: 0
CCCC(=O)Nc1ncnc2c1ncn2[C@@H]1O[C@@H]2COP(=O)(O)O[C@H]2[C@H]1OC(=O)CCC :: -1
CC(C)OC(=O)CC1C(=O)NCCN1C(=S)NC(=O)c1ccccc1Cl (centres undefined) :: -0.4
N/C(=N\OC(=O)CCCOc1ccc(Cl)cc1Cl)c1ccncc1 :: 0.1
NC(N)=N/N=C/c1ccc(OS(=O)(=O)c2ccccc2)cc1 :: -1.5

Origin of the recorded values: PubChem BioAssay
